# IC50 values compiled below
Test system: Cryptococcus neoformans (serotype A)
Measurement notes: Example L: Cryptococcus neoformans (serotype A) growth inhibition
Type: cell-based
Test conditions: Cryptococcus neoformans, read-out: IC50, uM (concentration for 50% of inhibition); OD of 26 hour reading, 30° C., XLfit
Mention the unit after the number when you answer.

These solved cases illustrate the format of a correct answer.
> print(dat)
                                   compound  property.measured   result
1  CCCCCCOCCCCCCCCNc1ccnc2c(Cl)cccc12 [Compound AX]               IC50  0.91 µM
2  CCCCCCCCCCOc1ccc(CNc2ncnc3ccccc23)cc1 [BN, N-[4-(Decyloxy)benzyl]quinazolin-4-amine]               IC50  3.73 µM
3  c1ccc(Oc2cccc(CNc3ncnc4ccccc34)c2)cc1 [BM, N-(3-Phenoxybenzyl)quinazolin-4-amine]               IC50  0.69 µM
4  CCCCOCCCCCCCCCCNc1ccnc2ccccc12 [AM, N-(10-Butoxydecyl)quinolin-4-amine]               IC50  1.57 µM
5  CCCCCCOCCCCCCCCCCNc1ccnc2ccccc12 [Compound AL, N-[10-(Hexyloxy)decyl]quinolin-4-amine]               IC50  3.01 µM

Return reported IC50; argument: CCCCCCOCCCCCCCCNc1ccnc2cc(Cl)ccc12 [AW]
1.74 µM

Return reported IC50; argument: CCCCCCOc1cccc(CNc2ncnc3ccccc23)c1 [AK, N-[3-(Hexyloxy)benzyl]quinazolin-4-amine]
0.25 µM

Return reported IC50; argument: CCCCCCCCCCNc1ccnc2ccccc12 [Compound AG, N-(Decyl)quinolin-4-amine]
2.14 µM

Return reported IC50; argument: COc1ccc(OCCCCCCCCNc2ncnc3ccccc23)cc1 [AE]
0.54 µM

Return reported IC50; argument: CCCCCCCCCCNc1ncnc2ccccc12 [Compound AH, N-(Decyl)quinazolin-4-amine]
0.39 µM
